Recorded values, source PubChem BioAssay (NCI).

tested on: HCC-2998 colon; assay: NCI tumour cell line growth inhibition, 48 h; in the data active = GI50 below about 0.43 µM; inactive = the rest
Classes used: active, inactive

INSERT INTO measurements (molecule, class_label) VALUES
  ('COc1cc(-c2cncn2-c2ccc(-c3nc4ccc(F)cc4s3)cc2)ccc1F', 'inactive'),
  ('COC(=O)[C@@H]1CCCN1C(=O)[C@@H]1CCCN1C(=O)[C@H](Cc1ccccc1)NC(=S)Nc1cc(C(F)(F)F)cc(C(F)(F)F)c1', 'inactive'),
  ('CC(C)(C)CC(C)(C)c1ccc(OCCSC(=N)N)cc1', 'inactive'),
  ('O=c1ccc(N=Nc2ccccc2)ccc1Cl', 'inactive'),
  ('CN1CCN(Cc2ccc(NC(=O)c3nc4ccc5[nH]ncc5c4c4c3CCCC4)cc2C(F)(F)F)CC1', 'inactive'),
  ('C=C1C(=O)O[C@H]2[C@H]1CC/C(COC(=O)NCc1ccc(Cn3c(=O)sn(CCI)c3=O)cc1)=C\CC[C@@]1(C)O[C@@H]21', 'inactive'),
  ('CCSc1ccc2c(c1)N(CCCN1CCN(C)CC1)c1ccccc1S2', 'inactive'),
  ('COc1ccc(-c2cnoc2-c2ccc(OC)cc2O)cc1', 'inactive'),
  ('CCN(CCCNC(=O)Cc1cc(=O)oc2cc(N(C)C)ccc12)CCNc1ccnc2cc(Cl)ccc12', 'inactive'),
  ('Cc1ccc(NS(=O)(=O)c2ccc(-c3cnc(C4CC4)o3)cc2)cc1C', 'inactive'),
  ('O=C1c2ccc3c4c(ccc(c24)C(=O)N1CCCNCc1ccccc1F)C(=O)N(CCCNCc1ccccc1F)C3=O', 'active'),
  ('COc1ccc(CN2CCc3c(Sc4ccccc4)nc(N)nc3C2=O)c(OC)c1', 'inactive'),
  ('CSc1nn2c(-c3ccc4ccccc4c3)ccnc2c1C#N', 'inactive'),
  ('CCCCN(CCCC)CC(O)c1ccc(OCc2ccccc2)c2ccccc12 (stereo not given)', 'inactive'),
  ('Nc1[nH]c(=O)nc2c1cnn2Cc1ccccc1', 'inactive'),
  ('Cn1cc(C2=C(c3cn(C)c4cc(C(=O)O)ccc34)C(=O)NC2=O)c2ccccc21', 'inactive'),
  ('CCN(CC)CCn1c(N)c(-c2nc3ccccc3n2C)c2nc(C#N)c(C#N)nc21', 'inactive'),
  ('C/C=C(/C(=C/C)c1ccc(O)cc1)c1ccc(O)cc1', 'inactive'),
  ('CCC(CC)COC(=O)[C@H](C)N[P@](=O)(OC[C@H]1O[C@@](C#N)(c2ccc3c(N)ncnn23)[C@H](O)[C@@H]1O)Oc1ccccc1', 'inactive'),
  ('COC(=O)c1cc2cc(-c3ccc(OC)cc3)cnc2[nH]1', 'inactive');
